The reported numbers originate from patent US11702475B2.

Assay Details: Thermal stability of cysteine-NEM conjugates by DSC
Type: physicochemical
Details: second identical scan
Description: The thermal stability of cysteine-NEM conjugates was assessed by differential scanning calorimetry (DSC). The only the conjugates tested were those determined to express at high levels, conjugate efficiently, and retain EGFR binding. Additionally, cysteine variants within the BC and FG loops were excluded. Stability data was generated by heating a 400 μL aliquot of the variant from 25° C. to 100° C. at a scan rate of 1° C. per minute in a VP-DSC instrument (MicroCal). […]
Measurement Kind: Second Scan Tm (°C)
Write the value in °C as a bare number.

1. S16C: cysteine variant of P54AR4-83v2 (SEQ ID NOS: 194 and 232); NEM and VC-MMAF conjugates (conjugate, NEM or vcMMAF conjugate; EGFR binding FN3 domain, NEM and VC-MMAF conjugates) MLPAPKNLVVSEVTEDCARLSWDDPWAFYESFLIQYQESEKVGEAIVLTVPGSERSYDLTGLKPGTEYTVSIYGVHNVYKDTNMRGLPLSAIFTT
68

q: Tell me the measured Second Scan Tm of G51C (conjugate, left off: small tags and cut ends) LPAPKNLVVSEVTEDSARLSWDDPWAFYESFLIQYQESEKVGEAIVLTVPCSERSYDLTGLKPGTEYTVSIYGVHNVYKDTNMRGLPLSAIFTT , please.
a: 61

q: Fill in the blank: the reported Second Scan Tm of A90C: cysteine variant of P54AR4-83v2 (SEQ ID NOS: 214 and 252); NEM and VC-MMAF conjugates (conjugate, NEM or vcMMAF conjugate; EGFR binding FN3 domain, NEM and VC-MMAF conjugates) MLPAPKNLVVSEVTEDSARLSWDDPWAFYESFLIQYQESEKVGEAIVLTVPGSERSYDLTGLKPGTEYTVSIYGVHNVYKDTNMRGLPLSCIFTT is ____.
a: 67

q: Give its Second Scan Tm value. Item: 83v2His6-cys: P54AR4-83v2 parent with C-terminal cysteine (SEQ ID NOs: 217 and 255); NEM and vcMMAF conjugates (conjugate, His6 tag, C-terminal Cys; NEM or vcMMAF conjugate; EGFR binding FN3 domain, NEM and vcMMAF conjugates) MLPAPKNLVVSEVTEDSARLSWDDPWAFYESFLIQYQESEKVGEAIVLTVPGSERSYDLTGLKPGTEYTVSIYGVHNVYKDTNMRGLPLSAIFTTGGHHHHHHC
a: 71

q: For V12C (conjugate, left off: small tags and cut ends) LPAPKNLVVSECTEDSARLSWDDPWAFYESFLIQYQESEKVGEAIVLTVPGSERSYDLTGLKPGTEYTVSIYGVHNVYKDTNMRGLPLSAIFTT , what is its reported Second Scan Tm?
a: 58

q: Given L88C: cysteine variant of P54AR4-83v2 (SEQ ID NOS: 212 and 250); NEM and VC-MMAF conjugates (conjugate, NEM or vcMMAF conjugate; EGFR binding FN3 domain, NEM and VC-MMAF conjugates) MLPAPKNLVVSEVTEDSARLSWDDPWAFYESFLIQYQESEKVGEAIVLTVPGSERSYDLTGLKPGTEYTVSIYGVHNVYKDTNMRGLPCSAIFTT , state its recorded Second Scan Tm.
a: 70
